System Name: alpha-thrombin (Homo sapiens, UniProt P00734;P00734 P00734:328-363,P00734:364-622)
Experiment Summary: filter; ±1.9; Fbmax 74.5; same buffer, 22 C
Measured Metric: Kd (nM)
A number alone suffices; assume nM.

Request: Which Kd is reported for this binder? Clone 6 (ssRNA) RNA: GGAGAGGGAAGGAGAACGAGCCGGGACACUAAGGAACAUAAAAGUUAAGUGACACAAAGCCCGG
Result: 13.8
